Please provide measured Ki for the entries that follow.
# Study System: UniProtKB P35462
# Assay Info: Displacement of [3H]-N-methylspiperone from human dopamine D3 receptor expressed in HEK293 cell membranes incubated for 60 mins by microbeta scintillation counting analysis
# Design: species or system Membrane

// assay UniProtKB P35462, entry `COc1cccc(C(=CCNCCCCN2CCN(c3cccc(Cl)c3Cl)CC2)c2cccc(OC)c2)c1` , Ki value = 342 nM

// returns Ki for `CCC(=O)N1CCC(c2ccccc2)(c2ccccc2)C1` with UniProtKB P35462; value = > 100000 nM

UniProtKB P35462 assay, compound `CCC(=O)C(CCN(C)C)(c1ccccc1)c1ccccc1` , recorded Ki = 4270 nM

# Ki measured on UniProtKB P35462 for item `CN(C)C(=O)C(CCNCCc1ccccc1)(c1ccccc1)c1ccccc1` = 2080 nM

Proceed to the following item.
# Ki measured on UniProtKB P35462 for item `CN(C)CCC(C(=O)NCCCCN1CCN(c2cccc(Cl)c2Cl)CC1)(c1ccccc1)c1ccccc1` = 11.8 nM

----------
Kindly state Ki for each of the entries shown.
# Study System: D(3) dopamine receptor (Homo sapiens)
# Sequence (P35462 whole entry): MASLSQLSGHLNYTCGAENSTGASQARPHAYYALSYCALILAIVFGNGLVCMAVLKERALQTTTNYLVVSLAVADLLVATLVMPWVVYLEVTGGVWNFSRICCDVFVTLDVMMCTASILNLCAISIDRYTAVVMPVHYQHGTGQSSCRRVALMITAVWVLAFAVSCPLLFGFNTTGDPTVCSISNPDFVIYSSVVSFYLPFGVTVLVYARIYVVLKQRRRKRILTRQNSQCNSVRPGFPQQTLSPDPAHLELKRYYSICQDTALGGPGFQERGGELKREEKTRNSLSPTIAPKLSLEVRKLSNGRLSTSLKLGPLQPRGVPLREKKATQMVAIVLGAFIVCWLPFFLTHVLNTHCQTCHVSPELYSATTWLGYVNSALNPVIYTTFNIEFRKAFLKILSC
# Assay Info: Displacement of [3H]-N-methylspiperone from human dopamine D3 receptor expressed in HEK293 cell membranes incubated for 60 mins by microbeta scintillation counting analysis
# Design: species or system Membrane

Sample records with Ki:
For reference, reported Ki for `CN1CCC(c2ccccc2)(c2ccccc2)C1` stands at > 100000 nM

Given item CCc1cc(Cl)c(OC)c(C(=O)NCC2CCCN2CC(=O)N2CCC(c3ccccc3)(c3ccccc3)C2)c1O (stereo not drawn) , the value recorded as its Ki is 288 nM

Next:
Reported Ki of `CCc1cccc(N2CCN(CCCCNCCC(C(=O)N(C)C)(c3ccccc3)c3ccccc3)CC2)c1Cl` : 17.8 nM

----------
# Study System: D(4) dopamine receptor (Homo sapiens, UniProt P21917)
# Sequence (P21917 whole entry): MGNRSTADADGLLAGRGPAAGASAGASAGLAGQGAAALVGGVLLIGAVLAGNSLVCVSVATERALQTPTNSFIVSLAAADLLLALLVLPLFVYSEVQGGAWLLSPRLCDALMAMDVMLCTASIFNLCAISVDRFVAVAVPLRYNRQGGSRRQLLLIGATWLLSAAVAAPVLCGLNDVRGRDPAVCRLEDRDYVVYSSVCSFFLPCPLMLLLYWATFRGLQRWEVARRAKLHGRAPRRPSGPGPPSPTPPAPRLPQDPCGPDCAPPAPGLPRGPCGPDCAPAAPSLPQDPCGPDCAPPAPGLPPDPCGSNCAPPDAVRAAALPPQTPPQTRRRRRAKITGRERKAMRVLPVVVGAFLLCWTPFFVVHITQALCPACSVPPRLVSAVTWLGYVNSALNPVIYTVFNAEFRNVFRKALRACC
# Assay Info: Displacement of [3H]-N-methylspiperone from human dopamine D4 receptor expressed in HEK293 cell membranes incubated for 60 mins by microbeta scintillation counting analysis
# Design: species or system Membrane
Quantity Measured: log10 Ki (log10 of the value in nM)
Base-10 log of Ki, unit nM.

Documented log10 Ki of `CN(C)C(=O)C(CCN1CCc2ccc(C#N)cc2C1)(c1ccccc1)c1ccccc1` : 4.26

Item: `CCOC(=O)/C=C1\[C@@H]2CCC[C@@]1(c1cccc(O)c1)CCN2CCCCNC(=O)c1cc2ccccc2[nH]1` | log10 Ki: 4.14

Short answer for `CCc1cc(Cl)c(OC)c(C(=O)NC[C@@H]2C[C@@H](OCCCCNCCC(C(=O)N(C)C)(c3ccccc3)c3ccccc3)CN2)c1O` : log10 Ki was 2.83

The value of log10 Ki measured for the molecule `CCc1cccc(N2CCN(CCC(c3cccc(O)c3)c3cccc(O)c3)CC2)c1Cl` turned out to be 1.28

Next:
Consider `CCc1cccc(N2CCN(CCC(C(=O)N(C)C)(c3ccccc3)c3ccccc3)CC2)c1Cl` . Its measured log10 Ki is 1.81

----------
# Study System: D(2) dopamine receptor (Homo sapiens, UniProt P14416)
# Sequence (P14416 whole entry): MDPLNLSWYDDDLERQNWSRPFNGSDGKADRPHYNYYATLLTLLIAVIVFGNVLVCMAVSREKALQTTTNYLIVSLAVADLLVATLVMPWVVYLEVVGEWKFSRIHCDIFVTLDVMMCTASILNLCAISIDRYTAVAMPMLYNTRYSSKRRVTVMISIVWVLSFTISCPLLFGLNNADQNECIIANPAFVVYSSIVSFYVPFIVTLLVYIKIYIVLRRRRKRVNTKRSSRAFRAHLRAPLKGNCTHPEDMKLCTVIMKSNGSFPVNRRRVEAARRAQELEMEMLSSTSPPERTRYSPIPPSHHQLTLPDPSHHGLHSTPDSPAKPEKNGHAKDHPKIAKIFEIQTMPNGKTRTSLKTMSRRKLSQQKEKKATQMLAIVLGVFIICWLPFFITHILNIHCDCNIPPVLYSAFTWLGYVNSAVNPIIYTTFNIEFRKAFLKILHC
# Assay Info: Displacement of [3H]-N-methylspiperone from human dopamine D2 receptor expressed in HEK293 cell membranes incubated for 60 mins by microbeta scintillation counting analysis
# Set-up: species or system Membrane
Quantity Measured: Ki

Previously resolved entries follow.
The recorded Ki for `CCOC(=O)/C=C1\[C@@H]2CCC[C@@]1(c1cccc(O)c1)CCN2` is > 100 µM

The recorded Ki for `Oc1cccc([C@]23CCC[C@H](NCC2)[C@H]3O)c1` is > 100 µM

***
According to the records, this molecule `CCC(=O)N1CCC(c2ccccc2)(c2ccccc2)C1` displays Ki of > 100 µM

Ref: ChEMBL document CHEMBL5046218
